Give GI50 for every item shown.
System: NCI-H23
testDescription: NCI tumour cell line growth inhibition, 48 h
Calls of active or inactive are those of the source. Cut-off read from the data, not from the text of the source: active = GI50 up to about 1.1 µM and inactive = higher.

COc1ccc(-c2nc3c(C(=O)NCCN(C)C)cccc3c3ccccc23)cc1    6.07 µM (inactive)
Oc1nc(S)nc(SCc2c(Cl)c(Cl)c(Cl)c(Cl)c2Cl)n1    55.7 µM (inactive)

Your task in this section: give GI50 for each listed record.
1. O=[N+]([O-])c1ccc(/C=N/CC2CCCN3CCCCC23)cc1 (stereo not given)
2. NCCN1CC2CCC(CC2)C1
3. COc1nc2ccc(Cl)c(C(O)c3ccccc3)c2nc1OC (stereo not given)
4. COc1cc2c(cc1OCCCOc1cc3c(cc1OC)C(=O)N1CCC[C@H]1C(=O)N3)N=C[C@@H]1CCCN1C2=O
5. COc1cccc2c(=O)c3c(n(C)c12)OC(C(C)C)C3 (stereo not given)
6. COc1cc2c(cc1C)NC(=O)/C2=C\c1cccnc1
7. COc1ccc(/C=C/C(=O)c2ccccc2)cc1OC
8. O=C1C2C3C=C4c5ccccc5N(c5ccccc5)C4(C2C(=O)N1c1ccc([N+](=O)[O-])cc1)[C@H]1C(=O)N(c2ccc([N+](=O)[O-])cc2)C(=O)[C@@H]31 (stereo not given in full)

OUT:
["> 100 µM (inactive)", "> 10 µM (inactive)", "17.2 µM (inactive)", "23.6 µM (inactive)", "> 100 µM (inactive)", "10.8 µM (inactive)", "20.7 µM (inactive)", "> 100 µM (inactive)"]

----------
Give GI50 for every item shown.
System: SK-MEL-28
testDescription: NCI tumour cell line growth inhibition, 48 h
Activity calls are given as the source filed them. No stated cut-off is given here; in the data, active = GI50 up to about 1.1 µM and inactive = higher.

Here are 2 compounds together with their reported answers.
O=C(c1ccccc1)c1ccc2c(c1)N=C(c1ccc(Cl)c(Cl)c1)CC(c1ccc3ccccc3c1)N2 (stereo not drawn)    > 100 µM (inactive)
COc1ccc(C2C(Cl)C(=O)N2NC(=O)c2ccc(N)cc2)cc1OC (stereo not drawn)    2.48 µM (inactive)

Your task in this section: give GI50 for each listed record.
1. Nc1ccc(Oc2ccc(C34CC5CC(C3)CC(c3ccc(Oc6ccc(N)cc6C(F)(F)F)cc3)(C5)C4)cc2)c(C(F)(F)F)c1
2. N/C(=N\n1c(=S)[nH]c2ccccc2c1=O)Nn1c(=S)[nH]c2ccccc2c1=O
3. COc1c2c3c4c(c(OC)c(=O)c5c(O)cc(OC)c(c6c(OC)cc(O)c(c1=O)c63)c54)C(C(C)O)C2C(C)=O (stereo not drawn)
4. COc1cc(C2SCC(=O)N2c2ccc(-n3c(-c4ccccc4)nc4ccccc4c3=O)cc2)cc(OC)c1OC (stereo not drawn)
5. CC(=O)N(C(=O)CC(=O)NNCc1ccccc1Cl)c1ccc(Cl)cc1

OUT:
43.3 µM (inactive)
28.2 µM (inactive)
0.189 µM (active)
> 100 µM (inactive)
> 10 µM (inactive)

IN: # return recorded GI50 for entry C1=N\c2ccc(cc2)-c2ccc(cc2)/N=C\c2ccccc2OCc2cccc(n2)COc2ccccc2/1
OUT: 84.9 µM (inactive)

----------
Tested on: CAKI-1
testDescription: NCI tumour cell line growth inhibition, 48 h
Calls of active or inactive are those of the source. Cut-off read from the data, not from the text of the source: active = GI50 up to about 1.1 µM and inactive = higher.
The reply should be one of these categories: active, inactive

IN: Outcome logged for CCCCCCCCC(C)CCCCCCCCC(=O)OCC(COP(=O)([O-])OCC[N+](C)(C)C)OC(=O)CCCCCCCCC(C)CCCCCCCC (stereo unspecified) in this assay:
OUT: inactive

IN: Outcome logged for CC(C)(C)c1cc(-c2cc(C(C)(C)C)[nH]n2)[nH]n1 in this assay:
OUT: inactive

IN: Outcome logged for O=C1NC(O)c2ccccc2O1 (stereo unspecified) in this assay:
OUT: inactive

IN: Outcome logged for Cc1cn2cc(-c3cccs3)nc2s1 in this assay:
OUT: inactive

IN: Outcome logged for COC(=O)C(C(=O)C(=O)Nc1nc2ccc(OC)cc2s1)c1cnc2ccccc2n1 (stereo unspecified) in this assay:
OUT: inactive
